Method: Cell Viability - LYMP2-021 (AID 974);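 further: compound exposure lasts 24 hours at 37 °C; nearly all actives have a fitted effect of over 55% in size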
Experimental Parameters: LYMP2-021 lymphoblastoid cells viability; series mostly up to 92.2 µM
Inconclusive results are not listed. Calls of active or inactive are those of the source. The call rests on the fitted dose curve; in most records, active means well fitted cell-killing curve with a large enough effect; inconclusive means small, poorly fitted or top-dose-only effect; inactive means flat fitted curve, though single readings scatter.
Outcomes: active, inactive

>  <Molecule>
CCCOC(=O)c1ccc(O)cc1

>  <Group Label>
inactive

$$$$
>  <Molecule>
CN(C)CCC(c1ccc(Cl)cc1)c1ccccn1 (stereo not given)

>  <Group Label>
inactive

$$$$
>  <Molecule>
CC1(C)S[C@@H]2[C@H](NC(=O)[C@H](N)c3ccccc3)C(=O)N2[C@H]1C(=O)O

>  <Group Label>
inactive

$$$$
>  <Molecule>
Nc1nc2ccc([N+](=O)[O-])cc2s1

>  <Group Label>
inactive

$$$$
>  <Molecule>
CN(C)c1ccc(C(=C2C=CC(=[N+](C)C)C=C2)c2ccccc2)cc1

>  <Group Label>
active

$$$$
